Below, each entry is listed alongside its reported protein stability index.
B1: C9orf9 (parent)
chain: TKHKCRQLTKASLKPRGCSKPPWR

Variants of: B1
Test: protein stability index of a GFP-peptide fusion (GPS, HEK-293T) (PSI 1-6); higher = more stable;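 further: lentivirally expressed fusions sorted by FACS into six bins by GFP to DsRed ratio, PSI derived from sequencing read proportions per bin multiplied by bin number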
Conditions: c terminus: a fixed tail appended
Answer with the value's number alone.

TKHKCRQLFKASLKPRGCSKPPWR [T9F] ... 4.48
QKHKCRQLTKASLKPRGCSKPPWR [T1Q] ... 2.46
TKHKCRQLTKASLKPRGCSKPPLR [W23L] ... 3.72
TKHKCRQLTKAFLKPRGCSKPPWR [S12F] ... 2.28
TKHKCRQCTKASLKPRGCSKPPWR [L8C] ... 2.89

Now look at this one.
Qu. Report protein stability index for TKHKCRQLTKASLKPRGCSKPPKR [W23K]
Ans. 4.63
